- targetEntity: human recombinant FGFR1 (Homo sapiens, UniProt P11362)
- Sequence (P11362 22-822): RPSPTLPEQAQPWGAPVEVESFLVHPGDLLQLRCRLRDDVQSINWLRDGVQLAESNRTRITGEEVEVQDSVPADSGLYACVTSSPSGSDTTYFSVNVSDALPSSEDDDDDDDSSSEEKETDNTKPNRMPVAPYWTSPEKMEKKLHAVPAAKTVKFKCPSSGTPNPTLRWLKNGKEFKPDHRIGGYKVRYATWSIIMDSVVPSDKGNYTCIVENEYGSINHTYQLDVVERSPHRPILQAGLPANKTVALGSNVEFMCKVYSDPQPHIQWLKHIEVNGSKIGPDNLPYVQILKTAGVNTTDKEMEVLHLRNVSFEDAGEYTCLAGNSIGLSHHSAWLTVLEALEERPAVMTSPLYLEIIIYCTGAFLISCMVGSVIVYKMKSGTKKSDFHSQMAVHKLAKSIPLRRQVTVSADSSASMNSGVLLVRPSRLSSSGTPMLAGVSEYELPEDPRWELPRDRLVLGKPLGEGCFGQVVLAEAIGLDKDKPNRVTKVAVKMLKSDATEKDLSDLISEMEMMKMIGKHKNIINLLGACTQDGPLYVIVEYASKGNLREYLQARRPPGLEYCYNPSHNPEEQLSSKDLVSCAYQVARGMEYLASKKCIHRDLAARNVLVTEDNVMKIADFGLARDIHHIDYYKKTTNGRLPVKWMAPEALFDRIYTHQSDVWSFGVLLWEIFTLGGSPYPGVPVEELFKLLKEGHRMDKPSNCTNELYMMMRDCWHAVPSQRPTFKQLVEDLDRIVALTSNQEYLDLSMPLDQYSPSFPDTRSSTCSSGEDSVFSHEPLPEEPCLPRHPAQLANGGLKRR
- assayInfo: FGFR family enzymatic activity assay (Caliper-based kinase assay), FGFR1
- assayConditions: FGFR1 0.5 nM, ATP 100 μM, peptide substrate 1 μM, room temperature 3 h
valueKind: IC50 (nM)

// known answers, use as guide
In [3]: df
Out[3]:
                            substancesmiles                              targetentity  valuekind  quantityunit  reading
0  C=CC(=O)Nc1ccc(CCn2c(=O)c(-c3c(Cl)c(OC)cc(OC)c3Cl)cc3cnc(NCC)nc32)nc1  human recombinant FGFR1 (Homo sapiens, UniProt P11362)       IC50            nM      0.2
1  C=CC(=O)Nc1nc(CCn2c(=O)c(-c3cc(OC)cc(OC)c3Cl)cc3cnc(NC)nc32)cs1  human recombinant FGFR1 (Homo sapiens, UniProt P11362)       IC50            nM      4.1
2  C=CC(=O)Nc1cccc(CCn2c(=O)c(-c3cc(OC)cc(OC)c3)cc3cnc(NC)nc32)n1  human recombinant FGFR1 (Homo sapiens, UniProt P11362)       IC50            nM     22.2
3  C=CC(=O)Nc1ccc(CCn2c(=O)c(-c3c(Cl)c(OC)cc(OC)c3Cl)cc3cnc(NC(C)(C)CO)nc32)cc1  human recombinant FGFR1 (Homo sapiens, UniProt P11362)       IC50            nM      2.3

I. C=CC(=O)Nc1ccc(CCn2c(=O)c(-c3cc(OC)cc(OC)c3Cl)cc3cnc(NC(C)(CO)CO)nc32)cc1
II. C=CC(=O)Nc1cccc(CCn2c(=O)c(-c3cc(OC)cc(OC)c3)cc3cnc(NC)nc32)c1
Exercise: // compare measured IC50, left I , right II , return larger Respond with the label that goes with your answer.
Key: II
(II: 31.2 nM, I: 6.2 nM)
